These measurements were taken from paper PMC5540273.

Tested on: AMPK-alpha2;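 further: KINOMEscan kinase panel screen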
Construct: gene PRKAA2
Conditions: concentration: 1 μM, replicates: in singlicate; n = 1
quantityKind: %Inh (%)
Supply the numeric figure in %, leaving out any unit text.

So what does the record say about %Inh for CCC(=O)c1c(-c2ccccc2)c2cc(Cl)ccc2c(=O)n1Cc1cc(S(C)(=O)=O)n(CC(N)=O)n1 ?
0

So what does the record say about %Inh for COc1ccc(-n2cnc3c(N)ncnc32)cc1 ?
20

So what does the record say about %Inh for Cc1nn2c(=O)cc(N3CCOCC3)nc2n1Cc1cccc(Cl)c1Cl ?
2

So what does the record say about %Inh for Cc1nnc(-c2ccc3ncn(-c4ccc(S(C)=O)cc4)c3c2)o1 (stereo not drawn) ?
2

So what does the record say about %Inh for CCC(=O)c1c(-c2ccccc2)c2cc(Cl)ccc2c(=O)n1Cc1cc(C(=O)NC2CC2)n(C)n1 ?
5

Further cases:
So what does the record say about %Inh for Cn1c(=O)c(F)c(Nc2ccc(I)cc2F)c2c(=O)n(OC[C@H](O)CO)cnc21 ?
13
